Hi there, I'd appreciate the recorded growth for every entry that follows.
tested on: NCI-H23 lung; experiment: NCI-60 one-dose screen, 48 h (100 = growth as untreated, 0 = no growth, -100 = all killed); details: 10 µM unless noted
This is part of a sample that, as a whole, favours compounds with a hit. Of some 83,000 tested, about 20% had one in any assay.
Kindly provide the numeric value in % only, without the unit symbol.

In: Note growth for the molecule shown: Cn1cc2c(=O)nc3c(-c4nc5ccccc5[nH]4)n[nH]n3c2n1
Out: 78.6

In: Note growth for the molecule shown: COc1cc(OC)cc(-c2ccc(-c3ccc(C(=N)N)cn3)s2)c1
Out: 94.6

In: Note growth for the molecule shown: Nc1c(C(=O)Nc2ccncc2)sc2nc3c(cc12)CCCCCCCC3
Out: -63.2

In: Note growth for the molecule shown: CC1=C2[C@@H](CC1)[C@]1(C)O[C@@](C(C)C)(C[C@H]1OC(=O)CO)[C@H]2OC(=O)C1CC1c1ccccc1 (some centres undefined)
Out: 92.8

In: Note growth for the molecule shown: COc1ccc(-c2c[nH]c(C(=O)O)c2-c2cc(OC)c(OC)c(OC)c2)cc1
Out: 48.5

In: Note growth for the molecule shown: CC(C)=CCc1cc(O)c(O)c2oc3cc(O)cc(O)c3c(=O)c12
Out: 51.1

In: Note growth for the molecule shown: Cn1cc(C2=C(c3cccc4ccccc34)C(=O)NC2=O)c2cc(Br)ccc21
Out: 93.5

In: Note growth for the molecule shown: C=C1C(=O)O[C@H]2[C@H]1CC/C(COC(=O)NCc1ccc(Cn3c(=O)sn(CCCI)c3=O)cc1)=C\CC[C@@]1(C)O[C@@H]21
Out: 72.1

In: Note growth for the molecule shown: COc1ccc(Cl)cc1Nc1nc(C(F)(F)F)ccc1C(=O)N/N=C/c1ccc(N(C)C)cc1
Out: 95.4

In: Note growth for the molecule shown: CCNC(=S)n1nc(SC)c(C(=O)OCC)c1N
Out: 93.3

In: Note growth for the molecule shown: O=C1/C(=C/c2ccc(F)c(F)c2)CN(C(=O)C(Cl)Cl)C/C1=C\c1ccc(F)c(F)c1
Out: -81.2

In: Note growth for the molecule shown: CCN1CCN(CC(=O)Nc2nc3ccc(NCc4ccc(C)cc4)cc3s2)CC1
Out: 72.6

In: Note growth for the molecule shown: COC(=O)/C=C1/SC(N2N=C(c3cccs3)CC2c2ccc(F)cc2)=NC1=O (centres undefined)
Out: 82.2

In: Note growth for the molecule shown: Cc1cnc(C(=O)NNc2nc3sc4c(c3c(=O)[nH]2)C(C)CCC4)cn1 (centres undefined)
Out: 22.9

In: Note growth for the molecule shown: O=C(CCCOc1ccc(Br)cc1)Nc1ncc(Cc2ccc(F)cc2)s1
Out: 86.5

In: Note growth for the molecule shown: COc1ccc(-c2cc3cnc4ccccc4c3oc2=O)cc1
Out: 94.4

In: Note growth for the molecule shown: C[N+]1=C(/C=C\C=C\c2ccccc2)C(C)(C)c2ccccc21
Out: 18.7

In: Note growth for the molecule shown: O=S(=O)(Nc1cc(Sc2cccc3cccnc23)c(O)c2ccccc12)c1ccc(F)cc1
Out: 17.7

In: Note growth for the molecule shown: CN1C(=O)N(C)C2(c3ccccc3)N(CC(=O)Nc3ccccc3O)C(=O)NC12c1ccccc1 (centres undefined)
Out: 101

In: Note growth for the molecule shown: COCCn1cc(-c2nc(-c3cn(CCOC)c4ncccc34)cs2)c2ccccc21
Out: 56.2

In: Note growth for the molecule shown: COc1ccc(/C=C2\COc3ccc(O)c(O)c3C2=O)c(OC)c1OC
Out: 38.6

In: Note growth for the molecule shown: Cc1ccc(-c2nc3nc(-c4ccccc4)nc(N4CCN(S(=O)(=O)c5ccccc5)CC4)c3o2)cc1
Out: 88.3

In: Note growth for the molecule shown: O=c1ccc2nc(-c3ccccn3)nn(-c3ccccc3)c-2c1
Out: 89.5

In: Note growth for the molecule shown: CC1(C)C(N)=Nc2cc(OCCCCN3Cc4ccccc4C3)c(OCC3CC3)cc21
Out: 80.3
